- TARGET ENTITY: EppA (Chelativorans sp. BNC1)
- TEST PROTOCOL: Isothermal titration calorimetry of wild-type EppA with chelators and metal chelates
- Assay type: binding
- APPLIED CONDITIONS: Kd, ITC, wild-type EppA, 25 °C, single replicate
MEASURED METRIC: Kd

Req: # lookup: Kd of O=C(O)CN(CCN(CC(=O)O)CC(=O)O)CC(=O)O [EDTA, ethylenediaminetetraacetate]
Resp: 9.52 nM

====

Entries and their measured ∆S follow.
- TARGET ENTITY: EppA (Chelativorans sp. BNC1, UniProt Q11H97)
- Sequence (Q11H97 entry or part of it): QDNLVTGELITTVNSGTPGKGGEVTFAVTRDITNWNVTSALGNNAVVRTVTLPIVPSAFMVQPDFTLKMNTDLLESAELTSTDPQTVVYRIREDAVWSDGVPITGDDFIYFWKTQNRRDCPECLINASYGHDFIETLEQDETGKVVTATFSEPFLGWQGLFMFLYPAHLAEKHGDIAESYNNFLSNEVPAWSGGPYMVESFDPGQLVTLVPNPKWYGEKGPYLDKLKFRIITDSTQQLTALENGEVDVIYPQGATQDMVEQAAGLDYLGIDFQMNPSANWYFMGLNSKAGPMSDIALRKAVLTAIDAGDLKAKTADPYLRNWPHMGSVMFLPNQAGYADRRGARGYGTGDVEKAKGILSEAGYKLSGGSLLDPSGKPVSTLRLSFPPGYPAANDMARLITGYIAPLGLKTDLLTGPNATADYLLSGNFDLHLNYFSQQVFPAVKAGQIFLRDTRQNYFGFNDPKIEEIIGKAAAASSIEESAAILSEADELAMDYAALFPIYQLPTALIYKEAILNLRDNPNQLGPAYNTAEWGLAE
- TEST PROTOCOL: Isothermal titration calorimetry of wild-type EppA with chelators and metal chelates
- Type: binding
Dear colleague, please return just the value in cal mol^−1 K^−1, with no unit written.

Known ∆S results, listed for orientation:
{"MOLECULE": "O=C(O)CN(CCN(CC(=O)O)CC(=O)O)CC(=O)O [EDTA, ethylenediaminetetraacetate]", "EXPERIMENTAL RESULT": 29}
{"MOLECULE": "O=C(O)CNCCNCC(=O)O [EDDA, ethylenediamine-N,N′-diacetate, reference compound]", "EXPERIMENTAL RESULT": 26.7}

Req: What value of measured ∆S is listed for O=C(O)CN(CCN(CC(=O)O)CC(=O)O)CC(=O)O.[Tb+3] ?
Resp: 18.1
